Measured values drawn from patent US20190284262A1 for this set.

molecular target: T1, HLA-A*02:01 on T2 cells alone (no peptide added) (human); experiment: flow cytometry, phage on T2 without peptide
T1 construct: TAP-deficient T2 cells without pulsed peptide; negative control target, and the HLA molecule whose stabilisation by peptides is read in the T2 stabilization assay; also called HLA-A*02 molecule; HLA-A2 molecule
Test readout: binding result

#34 (scFv, also called EXT017-34; EXT017-34 scFv phage clone) scFv (VL-linker-VH-His/HA tag): QSALTQPPSASGSPGQSVTISCTGTSSDVGAYNYVSWYQHYPGKAPKLMIYEVSERPSGVPDRFSGSKSGNTASLTVSGLQAEDEADYFCSSYAGSNNFVFGTGTKVTVLGSRGGGGSGGGGSGGGGSLEMAEVQLVQSGAEVKKPGSSVKVSCKASGGTFSSYAISWVRQAPGQGLEWMGRIIPILGIANYAQKFQGRVTITADKSSSTAYMALSSLTSEDTAVYYCARGGDYVESWFDPWGQGTLVTVSSTSGQAGQHHHHHHGAYPYDVPDYAS
no binding
#55 (scFv, also called EXT017-55; EXT017-55 scFv phage clone) scFv (VL-linker-VH-His/HA tag): QSALTQPASVSGSPGQSITISCTGPTSDFNDYLFVSWYQQHPGKAPKLILYDVTHRPSGVSGRFSGSKSASTASLTISGLQAEDEADYFCGSKTGRTTYVFGTGTKVTVLGSRGGGGSGGGGSGGGGSLEMAQVQLVQSGAEVKKPGASVKVSCKASGYTFDNFGISWVRQAPGQGLEWMGWINTYDGYTNYVEKLQGRVTMTTDTSTGTAYMELRGLRSDDTAVYYCARSVPHQISYGDLWGQGTLVTVSSTSGQAGQHHHHHHGAYPYDVPDYAS
no binding
